Data provenance: paper PMC11676667

Quick reference: concentration at 2 h of the listed items.
# procedureText: Plasma pharmacokinetics after single oral dose of Δ8-THCV in MCT oil (LC-MS/MS, non-compartmental analysis)
# Assay type: in vivo, human
# condition: human, plasma, oral, 25 mg, 2 h; 25 mg Δ8-THCV dose; Mean (SD, %CV)
Write the answer as a number in ng/mL, unit excluded.

Guide cases for concentration at 2 h, answers given:
>  <molecule>
CCCCCc1cc(O)c2c(c1)OC(C)(C)[C@@H]1CC=C(C(=O)O)CC21 (single isomer, unassigned; (+)) [Δ8-THC-COOH, (+)-11-nor-Δ8-THC-9-carboxylic acid]

>  <concentration at 2 h (ng/mL)>
0

$$$$
>  <molecule>
CCCc1cc(O)c2c(c1)OC(C)(C)[C@@H]1CCC(C(=O)O)=C[C@@H]21 [Δ9-THCV-COOH, 11-nor-9-carboxy-Δ9-THCV]

>  <concentration at 2 h (ng/mL)>
1.6

$$$$
>  <molecule>
CCCc1cc(O)c2c(c1)OC(C)(C)[C@@H]1CC=C(CO)C[C@@H]21 (racemic) [11-OH-Δ8-THCV, (±)-11-hydroxy-Δ8-THCV]

>  <concentration at 2 h (ng/mL)>
0.3

$$$$

Request: Return reported concentration at 2 h; argument: CCCc1cc(O)c2c(c1)OC(C)(C)[C@@H]1CC=C(C(=O)O)C[C@@H]21 [Δ8-THCV-COOH, 11-nor-9-carboxy-Δ8-THCV]
Response: 54.6

Request: Return reported concentration at 2 h; argument: CCCc1cc(O)c2c(c1)OC(C)(C)[C@@H]1CCC(C)=C[C@@H]21 [Δ9-THCV, Δ9-tetrahydrocannabivarin]
Response: 0

Request: Return reported concentration at 2 h; argument: CCCc1cc(O)c2c(c1)OC(C)(C)[C@@H]1CC=C(C)C[C@@H]21 [Δ8-THCV, Δ8-tetrahydrocannabivarin]
Response: 1.4

----------
# procedureText: Plasma pharmacokinetics after single oral dose of Δ8-THCV in MCT oil (LC-MS/MS, non-compartmental analysis)
# Assay type: in vivo, human
# condition: human, plasma, oral, 50 mg, 4 h; 50 mg Δ8-THCV dose; Mean (SD, %CV)
# Experimental: The study was a two-phase, dose-ranging, placebo-controlled trial in 21 healthy participants to assess the safety, tolerability, PK, and PD of an oral formulation of Δ8-THCV. A detailed description of the study was published elsewhere. […] Plasma samples were analyzed using a validated high-performance liquid chromatography–tandem mass spectrometry (LC-MS/MS) assay. […] For the PK analysis, concentrations below the lower limit of quantification were set to 0 ng/mL. […]
concentration at 4 h of 0.6 ng/mL or higher: 1.0. Under 0.6 ng/mL: 0.0.

Solved cases below.
>  <molecule>
CCCc1cc(O)c2c(c1)OC(C)(C)[C@@H]1CC=C(C)C[C@@H]21 [Δ8-THCV, Δ8-tetrahydrocannabivarin]

>  <labelClass>
1.0

$$$$
>  <molecule>
CCCc1cc(O)c2c(c1)OC(C)(C)[C@@H]1CC=C(C(=O)O)C[C@@H]21

>  <labelClass>
1.0

$$$$
>  <molecule>
CCCc1cc(O)c2c(c1)OC(C)(C)[C@@H]1CCC(C)=C[C@@H]21 [Δ9-THCV, Δ9-tetrahydrocannabivarin]

>  <labelClass>
0.0

$$$$
>  <molecule>
CCCc1cc(O)c2c(c1)OC(C)(C)[C@@H]1CCC(C(=O)O)=C[C@@H]21

>  <labelClass>
1.0

$$$$

Switching to the query record.
Request: Reported concentration at 4 h at or above 0.6 ng/mL? CCCCCc1cc(O)c2c(c1)OC(C)(C)[C@@H]1CC=C(C(=O)O)CC21 (single isomer, unassigned; (+)) [Δ8-THC-COOH, (+)-11-nor-Δ8-THC-9-carboxylic acid]
Response: 0.0

----------
Quick reference: MRT of the listed items.
# procedureText: Plasma pharmacokinetics after single oral dose of Δ8-THCV in MCT oil (LC-MS/MS, non-compartmental analysis)
# Type: in vivo, human
# condition: human, plasma, po, 200 mg, 200 mg single oral Δ8-THCV in MCT oil; plasma; Median (Range); read-out: MRT (mean residence time)
Write the answer as a number in h, unit excluded.

>  <compound>
CCCc1cc(O)c2c(c1)OC(C)(C)[C@@H]1CCC(C(=O)O)=C[C@@H]21

>  <recordedValue>
5.2

$$$$
>  <compound>
CCCc1cc(O)c2c(c1)OC(C)(C)[C@@H]1CC=C(CO)C[C@@H]21 (racemic) [11-OH-Δ8-THCV, (±)-11-hydroxy-Δ8-THCV]

>  <recordedValue>
4.7

$$$$

Request: Return reported MRT; argument: CCCc1cc(O)c2c(c1)OC(C)(C)[C@@H]1CC=C(C)C[C@@H]21 [Δ8-THCV, Δ8-tetrahydrocannabivarin]
Response: 4.7

----------
# procedureText: Plasma pharmacokinetics after single oral dose of Δ8-THCV in MCT oil (LC-MS/MS, non-compartmental analysis)
# Format: in vivo, human
# condition: human, plasma, po, 200 mg, 200 mg single oral Δ8-THCV in MCT oil; plasma; Mean (±SD); read-out: MRT (mean residence time)
MRT of 5 h or higher: class 1. Under 5 h: class 0.

Solved cases below.
>  <compound>
CCCc1cc(O)c2c(c1)OC(C)(C)[C@@H]1CC=C(C)C[C@@H]21 [Δ8-THCV, Δ8-tetrahydrocannabivarin]

>  <labelClass>
class 0

$$$$
>  <compound>
CCCc1cc(O)c2c(c1)OC(C)(C)[C@@H]1CCC(C)=C[C@@H]21 [Δ9-THCV, Δ9-tetrahydrocannabivarin]

>  <labelClass>
class 0

$$$$
>  <compound>
CCCCCc1cc(O)c2c(c1)OC(C)(C)[C@@H]1CC=C(C(=O)O)CC21 (single isomer, unassigned; (+)) [Δ8-THC-COOH, (+)-11-nor-Δ8-THC-9-carboxylic acid]

>  <labelClass>
class 1

$$$$

Request: Reported MRT at or above 5 h? CCCc1cc(O)c2c(c1)OC(C)(C)[C@@H]1CC=C(CO)C[C@@H]21 (racemic) [11-OH-Δ8-THCV, (±)-11-hydroxy-Δ8-THCV]
Response: class 0

----------
# procedureText: Plasma pharmacokinetics after single oral dose of Δ8-THCV in MCT oil (LC-MS/MS, non-compartmental analysis)
# Assay type: in vivo, human
# condition: human, plasma, oral, 12.5 mg, 1 h; 12.5 mg Δ8-THCV dose; Median (IQ Range)
measuredEndpoint: concentration at 1 h (ng/mL)
Write the answer as a number in ng/mL, unit excluded.

>  <compound>
CCCc1cc(O)c2c(c1)OC(C)(C)[C@@H]1CC=C(CO)C[C@@H]21 (racemic) [11-OH-Δ8-THCV, (±)-11-hydroxy-Δ8-THCV]

>  <units>
ng/mL

>  <concentration at 1 h>
0

$$$$
>  <compound>
CCCc1cc(O)c2c(c1)OC(C)(C)[C@@H]1CC=C(C(=O)O)C[C@@H]21

>  <units>
ng/mL

>  <concentration at 1 h>
3

$$$$
>  <compound>
CCCCCc1cc(O)c2c(c1)OC(C)(C)[C@@H]1CC=C(C(=O)O)CC21 (single isomer, unassigned; (+)) [Δ8-THC-COOH, (+)-11-nor-Δ8-THC-9-carboxylic acid]

>  <units>
ng/mL

>  <concentration at 1 h>
0

$$$$
>  <compound>
CCCc1cc(O)c2c(c1)OC(C)(C)[C@@H]1CCC(C)=C[C@@H]21 [Δ9-THCV, Δ9-tetrahydrocannabivarin]

>  <units>
ng/mL

>  <concentration at 1 h>
0

$$$$

Request: Return reported concentration at 1 h; argument: CCCc1cc(O)c2c(c1)OC(C)(C)[C@@H]1CC=C(C)C[C@@H]21 [Δ8-THCV, Δ8-tetrahydrocannabivarin]
Response: 0

Request: Return reported concentration at 1 h; argument: `CCCc1cc(O)c2c(c1)OC(C)(C)[C@@H]1CCC(C(=O)O)=C[C@@H]21`
Response: 0

----------
Quick reference: plasma concentration of the listed items.
# procedureText: Plasma pharmacokinetics after single oral dose of Δ8-THCV in MCT oil (LC-MS/MS, non-compartmental analysis)
# Format: in vivo, human
# condition: Predose; 100 mg Δ8-THCV dose; Median (IQ Range)

>  <compound>
CCCc1cc(O)c2c(c1)OC(C)(C)[C@@H]1CC=C(C(=O)O)C[C@@H]21

>  <measuredEndpoint>
plasma concentration

>  <recordedValue>
0 (0–1) ng/mL

$$$$
>  <compound>
CCCc1cc(O)c2c(c1)OC(C)(C)[C@@H]1CC=C(CO)C[C@@H]21 (racemic) [11-OH-Δ8-THCV, (±)-11-hydroxy-Δ8-THCV]

>  <measuredEndpoint>
plasma concentration

>  <recordedValue>
0 (0–0) ng/mL

$$$$
>  <compound>
CCCc1cc(O)c2c(c1)OC(C)(C)[C@@H]1CCC(C(=O)O)=C[C@@H]21

>  <measuredEndpoint>
plasma concentration

>  <recordedValue>
0 (0–0) ng/mL

$$$$
>  <compound>
CCCCCc1cc(O)c2c(c1)OC(C)(C)[C@@H]1CC=C(C(=O)O)CC21 (single isomer, unassigned; (+)) [Δ8-THC-COOH, (+)-11-nor-Δ8-THC-9-carboxylic acid]

>  <measuredEndpoint>
plasma concentration

>  <recordedValue>
0 (0–0) ng/mL

$$$$
>  <compound>
CCCc1cc(O)c2c(c1)OC(C)(C)[C@@H]1CC=C(C)C[C@@H]21 [Δ8-THCV, Δ8-tetrahydrocannabivarin]

>  <measuredEndpoint>
plasma concentration

>  <recordedValue>
0 (0–0) ng/mL

$$$$

Request: Return reported plasma concentration; argument: CCCc1cc(O)c2c(c1)OC(C)(C)[C@@H]1CCC(C)=C[C@@H]21 [Δ9-THCV, Δ9-tetrahydrocannabivarin]
Response: 0 (0–0) ng/mL
